Test system: PPARg:RXRa 270nM:90nM, anti-RXR (NR concentration 270 nM, RXRa partner concentration 90 nM)
Experiment: PBM binding z-score (relative to random genomic background probes); higher = stronger binding; sequences stand for … in GC…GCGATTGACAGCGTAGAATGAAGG
Entries and their PBM binding z-score values follow.

QUERY SEQUENCE: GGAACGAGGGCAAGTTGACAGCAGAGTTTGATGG
PBM binding z-score: 1.35
--
QUERY SEQUENCE: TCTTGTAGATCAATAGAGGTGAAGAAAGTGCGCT
PBM binding z-score: 1.72
--
QUERY SEQUENCE: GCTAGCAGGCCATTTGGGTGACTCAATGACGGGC
PBM binding z-score: -0.431
--
QUERY SEQUENCE: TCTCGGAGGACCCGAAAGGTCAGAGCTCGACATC
PBM binding z-score: 2.23
--
QUERY SEQUENCE: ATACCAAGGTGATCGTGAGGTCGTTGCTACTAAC
PBM binding z-score: 0.438
--
QUERY SEQUENCE: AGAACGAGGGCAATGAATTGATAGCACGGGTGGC
PBM binding z-score: 0.732
--
QUERY SEQUENCE: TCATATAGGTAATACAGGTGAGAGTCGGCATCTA
PBM binding z-score: 2.16
--
QUERY SEQUENCE: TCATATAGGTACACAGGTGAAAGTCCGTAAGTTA
PBM binding z-score: 3.69
--
QUERY SEQUENCE: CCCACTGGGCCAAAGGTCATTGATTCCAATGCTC
PBM binding z-score: 10.5
--
QUERY SEQUENCE: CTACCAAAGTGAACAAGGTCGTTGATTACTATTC
PBM binding z-score: 0.215
--
QUERY SEQUENCE: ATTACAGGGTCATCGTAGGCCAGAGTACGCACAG
PBM binding z-score: 6.16
--
QUERY SEQUENCE: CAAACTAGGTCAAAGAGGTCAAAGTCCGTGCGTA
PBM binding z-score: 7.69
--
QUERY SEQUENCE: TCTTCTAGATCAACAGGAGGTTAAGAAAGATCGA
PBM binding z-score: 1.94
--
QUERY SEQUENCE: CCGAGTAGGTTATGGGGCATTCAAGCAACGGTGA
PBM binding z-score: 4.64
--
QUERY SEQUENCE: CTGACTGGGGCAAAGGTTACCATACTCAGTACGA
PBM binding z-score: 9.42
--
QUERY SEQUENCE: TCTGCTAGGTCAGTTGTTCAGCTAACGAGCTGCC
PBM binding z-score: 1.24
--
QUERY SEQUENCE: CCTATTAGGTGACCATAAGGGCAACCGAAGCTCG
PBM binding z-score: 1.56
--
QUERY SEQUENCE: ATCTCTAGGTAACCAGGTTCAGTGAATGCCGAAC
PBM binding z-score: 0.861
--
QUERY SEQUENCE: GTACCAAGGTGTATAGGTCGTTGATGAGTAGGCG
PBM binding z-score: 0.814
--
QUERY SEQUENCE: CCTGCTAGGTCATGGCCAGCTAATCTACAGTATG
PBM binding z-score: 3
--
QUERY SEQUENCE: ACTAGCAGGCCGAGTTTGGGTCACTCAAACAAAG
PBM binding z-score: -0.103
--
QUERY SEQUENCE: CGAACGAGGGCATGAATTGATAGCAAATGCCGAT
PBM binding z-score: 0.623
--
QUERY SEQUENCE: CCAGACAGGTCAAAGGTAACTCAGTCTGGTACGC
PBM binding z-score: 7.43
--
QUERY SEQUENCE: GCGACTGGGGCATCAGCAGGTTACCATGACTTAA
PBM binding z-score: 0.462
--
QUERY SEQUENCE: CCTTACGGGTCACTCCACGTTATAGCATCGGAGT
PBM binding z-score: 3.29
--
QUERY SEQUENCE: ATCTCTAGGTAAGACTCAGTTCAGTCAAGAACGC
PBM binding z-score: 0.136
--
QUERY SEQUENCE: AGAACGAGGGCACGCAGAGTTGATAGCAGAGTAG
PBM binding z-score: 2.28
--
QUERY SEQUENCE: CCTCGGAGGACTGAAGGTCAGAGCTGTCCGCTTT
PBM binding z-score: 0.572
--
QUERY SEQUENCE: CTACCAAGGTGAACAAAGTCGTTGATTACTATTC
PBM binding z-score: 0.548
--
QUERY SEQUENCE: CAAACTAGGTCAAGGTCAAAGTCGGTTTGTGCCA
PBM binding z-score: 8.12
--
QUERY SEQUENCE: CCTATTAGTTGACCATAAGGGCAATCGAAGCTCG
PBM binding z-score: 0.366
--
QUERY SEQUENCE: CCTTACGGGTCACTCCCGGTTATAGCATCGGAGT
PBM binding z-score: 3.52
--
QUERY SEQUENCE: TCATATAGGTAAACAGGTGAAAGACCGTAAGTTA
PBM binding z-score: 3.63
--
QUERY SEQUENCE: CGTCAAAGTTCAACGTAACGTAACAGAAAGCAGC
PBM binding z-score: 4.97
--
QUERY SEQUENCE: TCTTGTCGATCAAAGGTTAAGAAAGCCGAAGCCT
PBM binding z-score: 6.32
--
QUERY SEQUENCE: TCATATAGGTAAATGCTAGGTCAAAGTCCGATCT
PBM binding z-score: 2.81
